These data points were gathered from ChEMBL document CHEMBL1921760.

Test system: HT-29
Assay: Growth inhibition of human HT-29 cells after 96 hrs by sulforhodamine B assay
Type: functional
Details: HT-29, 96 h
Sorting guide: entries reporting GI50 beneath 20 µM go in the Met pile, the rest go in the Not met pile.

Quick check: does CCC(O)[C@@H](CC)Nc1nc(NCc2ccccc2)c2ncn(C(C)C)c2n1 (mixture of isomers) have GI50 under 20 µM?
Not met

I'd appreciate it if you could check whether CC[C@@H](Nc1nc(NCc2ccccn2)c2ncn(C(C)C)c2n1)C(C)(C)O has GI50 smaller than 20 µM.
Not met

Quick check: GI50 of CC[C@@H](Nc1nc(NCc2ccccc2)c2ncn(C(C)C)c2n1)C(O)C(C)C (mixture of isomers) under 20 µM?
Met

Dear colleague, could you confirm whether GI50 of CC[C@H](Nc1nc(NCc2cccnc2)c2ncn(C(C)C)c2n1)C(C)O (mixture of isomers) falls below 20 µM? Thanks.
Met

Find out if reported GI50 for CC[C@H](CO)Nc1nc(NCc2ccccc2)c2ncn(C(C)C)c2n1 is less than 20 µM
Met

Check if GI50 falls below 20 µM for CC[C@H](Nc1nc(NCc2cccnc2)c2ncn(C(C)C)c2n1)C(C)(C)O .
Met

Please check: GI50 for CC[C@@H](Nc1nc(NCc2ccccn2)c2ncn(C(C)C)c2n1)C(O)C(C)C (mixture of isomers) , strictly under 20 µM or not?
Not met

Dear reviewer, please state whether CCC(O)[C@H](CC)Nc1nc(NCc2ccccc2)c2ncn(C(C)C)c2n1 (mixture of isomers) has GI50 strictly beneath 20 µM.
Not met

Decide: GI50 of CCC(O)[C@H](CC)Nc1nc(NCc2ccccn2)c2ncn(C(C)C)c2n1 (mixture of isomers) strictly below 20 µM?
Not met

Decide: GI50 of CC[C@H](Nc1nc(NCc2cccnc2)c2ncn(C(C)C)c2n1)C(O)C(C)(C)C (mixture of isomers) strictly below 20 µM?
Not met

Record CC[C@H](Nc1nc(NCc2ccccn2)c2ncn(C(C)C)c2n1)C(O)C(C)C (mixture of isomers) : is its GI50 strictly below 20 µM?
Not met

In the record for CC[C@H](Nc1nc(NCc2ccccc2)c2ncn(C(C)C)c2n1)C(O)C(C)(C)C (mixture of isomers) , is GI50 less than 20 µM?
Not met

Below 20 µM on GI50? Entry CC[C@@H](Nc1nc(NCc2cccnc2)c2ncn(C(C)C)c2n1)C(C)(C)O
Met

API: query returns whether the compound falls strictly under 20 µM in GI50. Query: CC[C@H](Nc1nc(NCc2ccccc2)c2ncn(C(C)C)c2n1)C(C)O (mixture of isomers)
Met

Hello, I'm reviewing records and need to know if GI50 of CC[C@@H](Nc1nc(NCc2ccccc2)c2ncn(C(C)C)c2n1)C(C)O (mixture of isomers) is below 20 µM. Could you check?
Met

For this compound, is GI50 lower than 20 µM? CC[C@@H](Nc1nc(NCc2cccnc2)c2ncn(C(C)C)c2n1)C(C)O (mixture of isomers)
Met

Does CC[C@@H](Nc1nc(NCc2cccnc2)c2ncn(C(C)C)c2n1)C(O)C(C)(C)C (mixture of isomers) have GI50 strictly under 20 µM?
Not met

---

Each entry below lists one item and its recorded log10 GI50 value.
Test system: CH1
Assay: Growth inhibition of doxorubicin-resistant human CH1 cells after 96 hrs by sulforhodamine B assay
Type: functional
Details: CH1, 96 h
Heads up: the numbers are on a log10 scale; they represent GI50 in µM.

Worked examples follow.
CC[C@H](Nc1nc(NCc2ccccc2)c2ncn(C(C)C)c2n1)C(O)C(C)C (mixture of isomers); 1.38
CCC(O)[C@H](CC)Nc1nc(NCc2cccnc2)c2ncn(C(C)C)c2n1 (mixture of isomers); 0.97
CC[C@@H](Nc1nc(NCc2ccccn2)c2ncn(C(C)C)c2n1)C(O)C(C)(C)C (mixture of isomers); 1.43
CC[C@H](Nc1nc(NCc2cccnc2)c2ncn(C(C)C)c2n1)C(C)O (mixture of isomers); 0.18
CC[C@H](Nc1nc(NCc2cccnc2)c2ncn(C(C)C)c2n1)C(O)C(C)C (mixture of isomers); 1.31
CC[C@H](Nc1nc(NCc2ccccn2)c2ncn(C(C)C)c2n1)C(C)O (mixture of isomers); 1.19

Let us move to another entry and its log10 GI50.
log10 GI50 reported for this molecule CC[C@@H](Nc1nc(NCc2ccccn2)c2ncn(C(C)C)c2n1)C(C)O (mixture of isomers) : 1.30

---

Molecular target: Cyclin-dependent kinase 4/cyclin D1 (Homo sapiens, UniProt P11802)
Sequence (P11802 whole entry): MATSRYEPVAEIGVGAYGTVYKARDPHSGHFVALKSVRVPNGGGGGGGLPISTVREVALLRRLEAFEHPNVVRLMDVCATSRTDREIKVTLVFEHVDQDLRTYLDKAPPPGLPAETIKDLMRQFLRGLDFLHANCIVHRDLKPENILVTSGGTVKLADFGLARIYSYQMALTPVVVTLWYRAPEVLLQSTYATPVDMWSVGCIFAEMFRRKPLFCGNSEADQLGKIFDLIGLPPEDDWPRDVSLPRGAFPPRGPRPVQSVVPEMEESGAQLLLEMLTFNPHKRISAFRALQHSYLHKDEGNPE
Sequence (P24385 whole entry, further chain): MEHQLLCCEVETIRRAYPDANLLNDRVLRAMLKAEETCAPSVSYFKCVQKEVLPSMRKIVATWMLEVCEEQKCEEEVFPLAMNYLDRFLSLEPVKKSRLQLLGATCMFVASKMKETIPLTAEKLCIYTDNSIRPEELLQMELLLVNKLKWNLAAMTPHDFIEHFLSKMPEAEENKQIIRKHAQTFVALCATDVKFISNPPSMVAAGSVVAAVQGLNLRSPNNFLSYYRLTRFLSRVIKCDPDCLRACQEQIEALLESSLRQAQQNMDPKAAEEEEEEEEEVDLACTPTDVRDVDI
Assay: Inhibition of CDK4/cyclin D1
Format: protein-complex assay
readoutType: pIC50
Scale for pIC50: -log10 of concentration given in mol/L; no unit attached.

CC[C@@H](Nc1nc(NCc2cccnc2)c2ncn(C(C)C)c2n1)C(O)C(C)(C)C (mixture of isomers); 4.62
CC[C@@H](Nc1nc(NCc2cccnc2)c2ncn(C(C)C)c2n1)C(C)(C)O; 5.12
CC[C@H](CO)Nc1nc(NCc2ccccn2)c2ncn(C(C)C)c2n1; 5.42
CCC(O)[C@H](CC)Nc1nc(NCc2cccnc2)c2ncn(C(C)C)c2n1 (mixture of isomers); 4.96
CC[C@@H](Nc1nc(NCc2ccccc2)c2ncn(C(C)C)c2n1)C(C)O (mixture of isomers); 4.64
CC[C@@H](Nc1nc(NCc2ccccn2)c2ncn(C(C)C)c2n1)C(C)O (mixture of isomers); 4.32
CC[C@H](Nc1nc(NCc2cccnc2)c2ncn(C(C)C)c2n1)C(C)(C)O; 4.92
CC[C@H](Nc1nc(NCc2ccccn2)c2ncn(C(C)C)c2n1)C(C)(C)O; 4.70

Lab book: pIC50 of CC[C@H](Nc1nc(NCc2ccccc2)c2ncn(C(C)C)c2n1)C(C)O (mixture of isomers) noted as 5.05

---

Target: Cyclin-dependent kinase 1/cyclin B1 (Homo sapiens, UniProt P06493)
Sequence (P06493 whole entry): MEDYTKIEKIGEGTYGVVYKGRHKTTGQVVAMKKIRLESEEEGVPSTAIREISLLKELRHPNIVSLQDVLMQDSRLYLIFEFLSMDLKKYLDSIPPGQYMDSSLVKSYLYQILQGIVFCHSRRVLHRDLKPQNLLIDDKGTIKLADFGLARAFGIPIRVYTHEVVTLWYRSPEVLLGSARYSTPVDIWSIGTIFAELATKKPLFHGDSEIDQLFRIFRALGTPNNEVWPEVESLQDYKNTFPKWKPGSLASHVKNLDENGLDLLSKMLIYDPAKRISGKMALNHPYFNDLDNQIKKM
Sequence (P14635 whole entry, further chain): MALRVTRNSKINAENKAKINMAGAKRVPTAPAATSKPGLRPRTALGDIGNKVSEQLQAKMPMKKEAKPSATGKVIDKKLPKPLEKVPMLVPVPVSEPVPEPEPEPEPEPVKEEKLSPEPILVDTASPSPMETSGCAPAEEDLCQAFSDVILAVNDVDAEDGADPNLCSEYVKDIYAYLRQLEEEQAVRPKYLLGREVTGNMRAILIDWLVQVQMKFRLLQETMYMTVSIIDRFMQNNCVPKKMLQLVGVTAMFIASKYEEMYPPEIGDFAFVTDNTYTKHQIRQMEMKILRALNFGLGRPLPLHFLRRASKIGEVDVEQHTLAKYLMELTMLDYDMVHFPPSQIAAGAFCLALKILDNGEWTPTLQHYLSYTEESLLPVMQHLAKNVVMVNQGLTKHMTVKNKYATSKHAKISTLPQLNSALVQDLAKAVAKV
Assay: Inhibition of CDK1/cyclin B
pIC50: −log10 of the molar value.
pIC50 of 5 or higher: met. Under 5: not met.

Given the entry CC[C@H](Nc1nc(NCc2ccccn2)c2ncn(C(C)C)c2n1)C(O)C(C)C (mixture of isomers) , answer whether its pIC50 meets or surpasses 5.
not met

Tell me whether pIC50 is at least 5 here: CC[C@@H](Nc1nc(NCc2cccnc2)c2ncn(C(C)C)c2n1)C(O)C(C)C (mixture of isomers)
not met

Exam item: decide whether the reported pIC50 for CC[C@H](Nc1nc(NCc2cccnc2)c2ncn(C(C)C)c2n1)C(C)O (mixture of isomers) is at least 5.
met

In plain terms: is recorded pIC50 at least 5 for CC[C@@H](Nc1nc(NCc2cccnc2)c2ncn(C(C)C)c2n1)C(C)O (mixture of isomers) ?
met

In plain terms: is recorded pIC50 at least 5 for CC[C@@H](Nc1nc(NCc2cccnc2)c2ncn(C(C)C)c2n1)C(C)(C)O ?
met

---

Target: Cyclin-dependent kinase 7/ cyclin H (Homo sapiens)
Sequence (P51946 whole entry): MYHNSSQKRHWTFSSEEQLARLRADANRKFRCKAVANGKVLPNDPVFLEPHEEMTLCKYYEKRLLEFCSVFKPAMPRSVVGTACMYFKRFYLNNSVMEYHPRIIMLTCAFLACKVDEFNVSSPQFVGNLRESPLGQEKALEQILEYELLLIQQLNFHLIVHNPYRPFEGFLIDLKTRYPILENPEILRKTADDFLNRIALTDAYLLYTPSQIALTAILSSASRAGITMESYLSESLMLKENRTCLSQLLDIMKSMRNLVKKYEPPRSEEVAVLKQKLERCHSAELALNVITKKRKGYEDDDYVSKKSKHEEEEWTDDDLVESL
Sequence (P50613 whole entry): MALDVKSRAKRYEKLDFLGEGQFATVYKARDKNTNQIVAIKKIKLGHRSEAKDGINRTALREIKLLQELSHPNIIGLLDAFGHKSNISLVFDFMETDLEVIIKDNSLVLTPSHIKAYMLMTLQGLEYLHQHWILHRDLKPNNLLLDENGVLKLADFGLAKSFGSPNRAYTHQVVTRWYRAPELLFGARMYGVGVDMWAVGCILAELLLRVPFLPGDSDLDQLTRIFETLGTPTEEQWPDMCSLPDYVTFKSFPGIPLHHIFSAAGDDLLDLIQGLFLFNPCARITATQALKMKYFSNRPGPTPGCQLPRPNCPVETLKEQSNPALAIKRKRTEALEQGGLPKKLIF
Experiment: Inhibition of CDK7/cyclin H
readoutType: pIC50
In textbook form, pIC50 equals minus log to base ten of the concentration in mol/L.

CC[C@H](Nc1nc(NCc2ccccn2)c2ncn(C(C)C)c2n1)C(C)O (mixture of isomers); 5.59
CCC(O)[C@@H](CC)Nc1nc(NCc2cccnc2)c2ncn(C(C)C)c2n1 (mixture of isomers); 5.96
CC[C@H](CO)Nc1nc(NCc2ccccn2)c2ncn(C(C)C)c2n1; 7.40
CC[C@H](CO)Nc1nc(NCc2cccnc2)c2ncn(C(C)C)c2n1; 6.74
CC[C@H](Nc1nc(NCc2cccnc2)c2ncn(C(C)C)c2n1)C(C)(C)O; 5.60

Reading of pIC50 for CC[C@H](Nc1nc(NCc2ccccc2)c2ncn(C(C)C)c2n1)C(O)C(C)C (mixture of isomers) with Cyclin-dependent kinase 7/ cyclin H (Homo sapiens): 5.52

Item CCC(O)[C@H](CC)Nc1nc(NCc2cccnc2)c2ncn(C(C)C)c2n1 (mixture of isomers) was tested on Cyclin-dependent kinase 7/ cyclin H (Homo sapiens); the reported pIC50 is 5.82

Field pIC50 (system: Cyclin-dependent kinase 7/ cyclin H (Homo sapiens)) for entry CC[C@H](Nc1nc(NCc2ccccn2)c2ncn(C(C)C)c2n1)C(C)(C)O = 5.37

---

Test: Metabolic stability in mouse liver microsomes assessed as compound metabolized at 10 uM after 30 mins by LC-MS analysis
Assay type: ADME, Microsome
Conditions: read-out: Activity
readoutType: metabolised at 0.5 h, 10 µM (%)
Kindly provide the numeric value in % only, without the unit symbol.

// solved cases for metabolised at 0.5 h, 10 µM follow
CCC(O)[C@@H](CC)Nc1nc(NCc2cccnc2)c2ncn(C(C)C)c2n1 (mixture of isomers); 30
CC[C@@H](Nc1nc(NCc2cccnc2)c2ncn(C(C)C)c2n1)C(C)(C)O; 16
CC[C@@H](Nc1nc(NCc2ccccn2)c2ncn(C(C)C)c2n1)C(C)(C)O; 73
CC[C@H](Nc1nc(NCc2cccnc2)c2ncn(C(C)C)c2n1)C(O)C(C)(C)C (mixture of isomers); 50
CC[C@@H](Nc1nc(NCc2cccnc2)c2ncn(C(C)C)c2n1)C(O)C(C)(C)C (mixture of isomers); 46
CC[C@H](Nc1nc(NCc2ccccc2)c2ncn(C(C)C)c2n1)C(C)O (mixture of isomers); 67

# metabolised at 0.5 h, 10 µM (compound: CC[C@@H](Nc1nc(NCc2cccnc2)c2ncn(C(C)C)c2n1)C(C)O (mixture of isomers) ) is 10

For record CC[C@@H](Nc1nc(NCc2cccnc2)c2ncn(C(C)C)c2n1)C(O)C(C)C (mixture of isomers) the listed metabolised at 0.5 h, 10 µM is 36

Field metabolised at 0.5 h, 10 µM (entry CC[C@@H](Nc1nc(NCc2ccccc2)c2ncn(C(C)C)c2n1)C(O)C(C)(C)C (mixture of isomers) ) reads 79
